Test system: MCF-7 (Breast)
Test: Cytotoxicity, MTT assay, MCF-7
Type: cell-based
Conditions: Homo sapiens, MCF7
Exercise: for every item that follows, state its recorded IC50.
One number for each entry, in µM.

Here are 4 compounds. What values of IC50 were reported for them?
1. CN1CCC(c2c(O)cc(O)c3c(=O)cc(/C=C/c4ccc(Cl)cc4)oc23)C(O)C1 (stereo not shown)
2. CN1CCC(c2c(O)cc(O)c3c(=O)cc(/C=C/c4ccccc4F)oc23)C(O)C1 (stereo not shown)
3. CN1CCC(c2c(O)cc(O)c3c(=O)cc(/C=C/c4ccccc4)oc23)C(O)C1 (stereo not shown)
4. CN1CCC(c2c(O)cc(O)c3c(=O)cc(/C=C/c4c(F)c(F)c(F)c(F)c4F)oc23)C(O)C1 (stereo not shown)

1: 49; 2: 3; 3: 31; 4: 4
